- target-of-assay: Rhesus PDE2A3 (Macaca mulatta)
- Sequence (B3VTJ2 1-941): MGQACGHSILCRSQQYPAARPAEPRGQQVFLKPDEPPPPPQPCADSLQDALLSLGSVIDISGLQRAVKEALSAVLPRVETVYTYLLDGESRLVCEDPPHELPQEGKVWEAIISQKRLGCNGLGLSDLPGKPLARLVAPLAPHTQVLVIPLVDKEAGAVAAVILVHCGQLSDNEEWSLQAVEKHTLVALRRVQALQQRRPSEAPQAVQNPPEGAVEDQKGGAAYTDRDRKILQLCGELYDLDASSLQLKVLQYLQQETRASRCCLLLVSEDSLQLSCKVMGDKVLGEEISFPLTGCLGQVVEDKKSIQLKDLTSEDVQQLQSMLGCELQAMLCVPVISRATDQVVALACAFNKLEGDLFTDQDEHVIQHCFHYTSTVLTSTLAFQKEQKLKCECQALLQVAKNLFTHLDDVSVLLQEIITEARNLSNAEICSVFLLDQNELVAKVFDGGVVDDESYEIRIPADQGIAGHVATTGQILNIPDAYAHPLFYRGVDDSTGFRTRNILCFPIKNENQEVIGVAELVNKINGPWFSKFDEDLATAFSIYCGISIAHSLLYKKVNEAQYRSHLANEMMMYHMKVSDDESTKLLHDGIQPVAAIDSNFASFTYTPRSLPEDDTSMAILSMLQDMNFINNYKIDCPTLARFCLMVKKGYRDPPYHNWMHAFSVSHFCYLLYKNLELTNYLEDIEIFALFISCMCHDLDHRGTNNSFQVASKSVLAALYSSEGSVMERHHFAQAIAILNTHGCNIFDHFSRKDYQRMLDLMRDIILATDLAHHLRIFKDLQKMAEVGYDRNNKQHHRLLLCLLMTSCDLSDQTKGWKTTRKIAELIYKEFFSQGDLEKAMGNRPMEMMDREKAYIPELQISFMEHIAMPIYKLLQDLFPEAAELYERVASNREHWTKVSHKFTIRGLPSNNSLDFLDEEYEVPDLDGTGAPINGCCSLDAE
- protocol-summary: PDE2 fluorescence polarization (IMAP FP) inhibition assay, rhesus PDE2A3
- Assay type: biochemical, rhesus macaque
- condition-label: Lab A; read-out: Rhesus PDE2 Ki (nM) - Lab A
property-measured: Ki (nM)

Example results:
[[record]]
compound = "O=C(N[C@@H](c1ccc(OC(F)(F)F)c(F)c1)C1CC1)c1cc(=O)[nH]c(N2CCCC2)n1"
property_measured = "Ki"
measured = 0.85

[[record]]
compound = "C[C@@H](NC(=O)c1cc(=O)[nH]c(N2CC[C@@H](F)C2)n1)c1ccc(C(F)(F)F)cc1"
property_measured = "Ki"
measured = 30

[[record]]
compound = "CC[C@@H](NC(=O)c1cc(=O)[nH]c(N(C)C)n1)c1ccc(OC(F)(F)F)c(F)c1"
property_measured = "Ki"
measured = 0.56

[[record]]
compound = "O=C(N[C@@H](c1ccc(C(F)(F)F)cc1)C1CC1)c1cc(=O)[nH]c(N2CCCC2)n1"
property_measured = "Ki"
measured = 1.4

[[record]]
compound = "C[C@@H](NC(=O)c1cc(=O)[nH]c(N2CCCC2)n1)c1ccc(C(F)(F)F)cc1"
property_measured = "Ki"
measured = 2.5


(A) CNc1nc(C(=O)N[C@H](C)c2ccc(SC(F)(F)F)cc2)cc(=O)[nH]1
(B) CC(NC(=O)c1cc(=O)[nH]c(OCCN(C)C)n1)c1ccc(C(F)(F)F)cc1 (stereo not shown)
Hey, which is lower on measured Ki, A or B ? Lab note: record the label of whichever item you select.
A
(A: 5.7 nM, B: 72000 nM)

(a) C[C@@H](NC(=O)c1cc(=O)[nH]c(N2Cc3cncnc3C2)n1)c1ccc(C(F)(F)F)cc1
(b) CCCOc1nc(C(=O)N[C@H](C)c2ccc(C(F)(F)F)cc2)cc(=O)[nH]1
Please indicate which item has the smaller measured Ki: a versus b Mark your answer with the label of the selected entry.
a
(a: 5.1 nM, b: 58 nM)

(a) O=C(N[C@@H](c1ccc(SC(F)(F)F)cc1)C1CC1)c1cc(=O)[nH]c(N2CCCC2)n1
(b) CC(C)[C@@H](NC(=O)c1cc(=O)[nH]c(N2CCCC2)n1)c1ccc(C(F)(F)F)cc1
Pick one: a or b . Which has the bigger Ki number? Your choice should be expressed through its label.
a
(a: 0.58 nM, b: 0.39 nM)

(P) C[C@@H](NC(=O)c1cc(=O)[nH]c(Oc2ccccc2)n1)c1ccc(C(F)(F)F)cc1
(Q) C[C@@H](NC(=O)c1cc(=O)[nH]c(N2CCC2)n1)c1ccc(C(F)(F)F)cc1
(R) C[C@@H](NC(=O)c1cc(=O)[nH]c(N2CC[C@H](F)C2)n1)c1ccc(C(F)(F)F)cc1
Arrange items by their Ki values in increasing order. To answer, arrange all of the labels according to the requested order.
R, Q, P

(P) CC[C@@H](NC(=O)c1cc(=O)[nH]c(N(C)C)n1)c1ccc(OC(F)(F)F)cc1
(Q) CC(C)[C@@H](NC(=O)c1cc(=O)[nH]c(N2CC(F)C2)n1)c1ccc(OC(F)(F)F)c(F)c1
P or Q : whose Ki is greater? To answer, give the label that identifies your chosen option.
Q
(Q: 2.4 nM, P: 1 nM)
